Data provenance: patent US7851637B2

target: Bcl-xL (Homo sapiens); test: Bcl-xL binding affinity analysis (fluorescence polarization binding assay); parameters: scale not given here
Sequence (Q07817 whole entry): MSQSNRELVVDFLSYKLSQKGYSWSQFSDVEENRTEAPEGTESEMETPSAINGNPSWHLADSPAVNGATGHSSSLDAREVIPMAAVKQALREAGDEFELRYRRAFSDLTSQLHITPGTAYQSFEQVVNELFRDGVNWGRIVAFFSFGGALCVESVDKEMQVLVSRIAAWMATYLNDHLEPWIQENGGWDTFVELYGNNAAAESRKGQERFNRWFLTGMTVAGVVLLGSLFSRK
quantity: Bcl-XL binding affinity Ki

Cc1cccc(C)c1CN(Cc1cccc(CN2OC(CO)C(C(C)O)C2C(=O)NC2CC3CC(C2C)C3(C)C)c1)C(CC(C)C)CN(C)C (stereo not drawn) ... ♯
C[C@@H]1[C@@H](NC(=O)[C@@H]2[C@H]([C@H](C)O)[C@H](CO)ON2Cc2cccc(-c3cccc(C(=O)NCC4CC4)c3)c2)C[C@H]2C[C@@H]1C2(C)C ... ♯♯
C[C@@H]1[C@@H](NC(=O)[C@@H]2[C@H]([C@H](C)O)[C@H](CO)ON2Cc2cccc(-c3ccc(C(=O)N(C)C)c([N+](=O)[O-])c3)c2)C[C@H]2C[C@@H]1C2(C)C ... ♯
CC(O)C1C(CO)ON(Cc2cccc(CN(Cc3ccccc3)C(CN(C)C)CC(C)(C)C)c2)C1C(=O)NC1CC2CC(C1C)C2(C)C (stereo not drawn) ... ♯
COc1cccc(CN(Cc2cccc(CN3OC(CO)C(C(C)O)C3C(=O)NC3CC4CC(C3C)C4(C)C)c2)C(CC(C)C)CN(C)C)c1 (stereo not drawn) ... ♯
C[C@@H](O)[C@@H]1C(C(=O)NCCCn2cnc3ccccc32)N(Cc2cccc(C#CCNC(=O)c3ccccc3)c2)O[C@@H]1CO (stereo partly drawn) ... ♯♯
CC(C)CC(CN(C)C)N(Cc1cccc(CN2OC(CO)C(C(C)O)C2C(=O)NC2CC3CC(C2C)C3(C)C)c1)Cc1ccccc1I (stereo not drawn) ... ♯
C[C@H](O)[C@@H]1[C@H](CO)ON(Cc2cccc(CN(CCN(C)C)Cc3ccccc3)c2)[C@@H]1C(=O)NC1CCN(C(=O)OC(C)(C)C)CC1 ... ♯
CC(O)C1C(CO)ON(Cc2cccc(C(=O)NC(Cc3ccccc3)CN(C)C)c2)C1C(=O)NC1CC2CC(C1C)C2(C)C (stereo not drawn) [Compound 508] ... ♯
C[C@H](O)[C@@H]1[C@H](CO)ON(Cc2ccc(C#CCN(C)Cc3ccccc3)cc2)[C@@H]1C(=O)NCCC1=CCCCC1 ... ♯♯
CCN1CCC[C@H]1CN(Cc1ccccc1)Cc1cccc(CN2O[C@@H](CO)C([C@H](C)O)[C@H]2C(=O)N[C@H]2C[C@H]3C[C@@H]([C@@H]2C)C3(C)C)c1 (stereo partly drawn) ... ♯
C[C@H](NC(=O)[C@@H]1[C@H]([C@H](C)O)[C@H](CO)ON1Cc1cccc(CN(CCN(C)C)Cc2ccccc2)c1)c1ccc2ccccc2c1 ... ♯
